- Test system: U-251
- PROTOCOL_DETAILS: NCI tumour cell line growth inhibition, 48 h
The source made the active and inactive calls. No stated cut-off is given here; in the data, active = GI50 up to about 1.1 µM and inactive = higher.
I'd be grateful if you could share measured GI50 for these entries.

Q: I would be grateful if you could share the reported GI50 for `CCCCCCCCCCCC(=O)c1c(O)cccc1O` .
A: 19.3 µM (inactive)

Q: I would be grateful if you could share the reported GI50 for `COC(=O)c1c(O)ccc2c1c1cc3ccccc3cc1n2Cc1cc(OC)cc(OC)c1` .
A: 4.45 µM (inactive)

Q: I would be grateful if you could share the reported GI50 for `COc1cc(Cn2c3c(c4cc(O)ccc42)Cc2ccccc2C3=O)cc(OC)c1` .
A: 57.3 µM (inactive)

Q: I would be grateful if you could share the reported GI50 for COc1cc(/C=C2\CCC(C)C3C2=NN(C(C)=O)C3c2cc(OC)c(OC)c(OC)c2)cc(OC)c1OC (centres undefined) .
A: > 85.5 µM (inactive)

Q: I would be grateful if you could share the reported GI50 for `O=c1[nH]c2ccc(Cl)cc2o1` .
A: > 100 µM (inactive)

Q: I would be grateful if you could share the reported GI50 for C[C@H](CCc1nc(C#N)c(N)o1)[C@H]1CC[C@H]2[C@@H]3[C@@H](O)CC4C[C@@H](O)CC[C@]4(C)[C@H]3C[C@@H](O)[C@]12C (some centres undefined) .
A: 20.7 µM (inactive)

Q: I would be grateful if you could share the reported GI50 for `CC(=O)O[C@@H]1C(=O)N(c2ccccc2)[C@@H]1c1cc2ccccc2c2ccccc12` .
A: 43.1 µM (inactive)

Q: I would be grateful if you could share the reported GI50 for CCC1C(C#N)=C(N)OC2=C1C(=O)CC(C)(C)C2 (centres undefined) .
A: > 100 µM (inactive)

Q: I would be grateful if you could share the reported GI50 for `CCCCn1c(C)c(C(=O)OCC)s/c1=N/Nc1nc2ccccc2nc1-c1ccccc1` .
A: 43.6 µM (inactive)

Values were extracted from ChEMBL document CHEMBL1201862.
